Attribution: ChEMBL document CHEMBL1130461

experiment.summary: Michaelis-Menten constant in polyclonal antibody reactions
Format: ADME
property: Km (µM)
State just the number; it will be interpreted in µM.

Endpoint output: Km of `C=C/C=C/CCOC(=O)CCC(=O)OCc1ccccc1` . Value? 96
